test: Solubility test in biological media (FaSSIF, FeSSIF), HPLC detection; assay type: physicochemical; settings: FeSSIF (pH 5.0), 37°C, 24h
experimental.readout: solubility at 24 h (µg/mL)
Report the figure in µg/mL without appending any unit label.

# input Look up solubility at 24 h for this compound: O=C(N[C@@H](Cc1ccc(N2C(=O)C3(CC3)c3ccc(F)c(F)c32)cc1)C(=O)O)c1c(F)cccc1Cl [Crystal Form B]
# output 734

----------
experiment: Solubility test in biological media (FaSSIF, FeSSIF), HPLC detection; format: physicochemical; conditions: FeSSIF (pH 5.0), 37°C, 2h
experimental.readout: solubility at 2 h

# input Look at this compound and give its reported solubility at 2 h. O=C(N[C@@H](Cc1ccc(N2C(=O)C3(CC3)c3ccc(F)c(F)c32)cc1)C(=O)O)c1c(F)cccc1Cl [Crystal Form B]
# output 815 µg/mL

----------
assay: Solubility test in biological media (FaSSIF, FeSSIF), HPLC detection; assay type: physicochemical; conditions: FeSSIF (pH 5.0), 37°C, 0.5h
experimental.readout: solubility at 0.5 h (µg/mL)
Numeric only. Scale: µg/mL

# input Suppose we examine the compound O=C(N[C@@H](Cc1ccc(N2C(=O)C3(CC3)c3ccc(F)c(F)c32)cc1)C(=O)O)c1c(F)cccc1Cl [Crystal Form B] ; what solubility at 0.5 h value has been reported?
# output 869

----------
test: Solubility test in biological media (FaSSIF, FeSSIF), HPLC detection; format: physicochemical; conditions: FaSSIF (pH 6.5), 37°C, 0.5h
experimental.readout: solubility at 0.5 h (µg/mL)
Respond numerically; units are µg/mL and should not be typed.

# input Quick one: solubility at 0.5 h for O=C(N[C@@H](Cc1ccc(N2C(=O)C3(CC3)c3ccc(F)c(F)c32)cc1)C(=O)O)c1c(F)cccc1Cl [Crystal Form B] ?
# output 3190

----------
test: Solubility test in biological media (FaSSIF, FeSSIF), HPLC detection; format: physicochemical; conditions: FaSSIF (pH 6.5), 37°C, 24h
experimental.readout: solubility at 24 h (µg/mL)
Just the number in µg/mL, nothing appended.

# input // solubility at 24 h lookup, key: O=C(N[C@@H](Cc1ccc(N2C(=O)C3(CC3)c3ccc(F)c(F)c32)cc1)C(=O)O)c1c(F)cccc1Cl [Crystal Form B]
# output 2790

----------
test: Solubility test in biological media (FaSSIF, FeSSIF), HPLC detection; assay type: physicochemical; settings: FaSSIF (pH 6.5), 37°C, 2h
experimental.readout: solubility at 2 h (µg/mL)
Number only, in µg/mL; omit the unit.

# input For the molecule shown here, O=C(N[C@@H](Cc1ccc(N2C(=O)C3(CC3)c3ccc(F)c(F)c32)cc1)C(=O)O)c1c(F)cccc1Cl [Crystal Form B] , give the reported solubility at 2 h.
# output 2960
